- TESTED TARGET: T1, 4H4073-bH
- T1 chain: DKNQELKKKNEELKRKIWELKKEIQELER
- TEST SUMMARY: two-hybrid library CCNG1;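 note: natural log of median RNA to DNA barcode read ratio; higher means stronger binding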
MEASURED ATTRIBUTE: interaction score

Answered cases to consult:
DEIQELEKKIEELKRENWELKKEIQELKR [4H346-bH]	-0.154
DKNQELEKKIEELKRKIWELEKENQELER [4H3427-bH]	0.194
DKNQELKKENEELKRKIWELKKEIQELER [4H3817-bH]	-1.13

(I) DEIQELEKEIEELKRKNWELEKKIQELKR [4H118-bH]
(II) DKIQELKKKNEELKREIWELEKEIQELKR [4H3010-bH]
Returns the identifier with the smallest measured interaction score among I and II . API: response body contains the label of the selected item. I
(I: 0.239, II: 0.581)
